Molecular target: P2Y purinoceptor 1 (Meleagris gallopavo, UniProt P49652)
Sequence (P49652 whole entry): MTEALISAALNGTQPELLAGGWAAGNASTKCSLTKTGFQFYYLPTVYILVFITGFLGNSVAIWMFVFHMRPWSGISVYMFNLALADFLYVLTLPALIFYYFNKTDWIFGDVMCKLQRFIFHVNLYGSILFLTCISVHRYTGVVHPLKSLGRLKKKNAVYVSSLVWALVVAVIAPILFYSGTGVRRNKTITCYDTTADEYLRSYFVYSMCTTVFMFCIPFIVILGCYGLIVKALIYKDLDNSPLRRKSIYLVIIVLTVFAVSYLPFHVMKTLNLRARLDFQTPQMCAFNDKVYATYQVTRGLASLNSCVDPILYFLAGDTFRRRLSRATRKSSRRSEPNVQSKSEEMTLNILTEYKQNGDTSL
Assay: Agonistic activity for P2Y purinoceptor 1 of turkey erythrocyte membranes
Format: functional
Please assign Not met whenever EC50 is at or above 0.5 µM, and Met whenever it is below.

[
  {
    "molecule": "CCCCCCSc1nc(N)c2ncn([C@@H]3O[C@H](COP(=O)(O)O)[C@@H](O)[C@H]3O)c2n1",
    "target desc": "P2Y purinoceptor 1 (Meleagris gallopavo, UniProt P49652)",
    "category": "Met"
  },
  {
    "molecule": "Nc1ncnc2c1ncn2C1O[C@H](COP(O)(=S)OP(=O)(O)OP(=O)(O)O)[C@@H](O)[C@H]1O (stereo partly drawn)",
    "target desc": "P2Y purinoceptor 1 (Meleagris gallopavo, UniProt P49652)",
    "category": "Not met"
  },
  {
    "molecule": "Nc1nc(SCCc2ccc([N+](=O)[O-])cc2)nc2c1ncn2C1O[C@H](COP(=O)(O)OP(=O)(O)OP(=O)(O)O)[C@@H](O)[C@H]1O (stereo partly drawn)",
    "target desc": "P2Y purinoceptor 1 (Meleagris gallopavo, UniProt P49652)",
    "category": "Met"
  },
  {
    "molecule": "CCCCCCSc1nc(N)c2ncn([C@@H]3O[C@H](COP(O)(=S)OP(=O)(O)OP(=O)(O)O)[C@@H](O)[C@H]3O)c2n1 (stereo in doubt; 5aB)",
    "target desc": "P2Y purinoceptor 1 (Meleagris gallopavo, UniProt P49652)",
    "category": "Met"
  },
  {
    "molecule": "CCCCCCSc1nc(N)c2ncn(C3O[C@H](COP(O)(O)=S)[C@@H](O)[C@H]3O)c2n1 (stereo partly drawn)",
    "target desc": "P2Y purinoceptor 1 (Meleagris gallopavo, UniProt P49652)",
    "category": "Not met"
  },
  {
    "molecule": "Nc1nc(SCCc2ccc([N+](=O)[O-])cc2)nc2c1ncn2[C@@H]1O[C@H](COP(O)(O)=S)[C@@H](O)[C@H]1O",
    "target desc": "P2Y purinoceptor 1 (Meleagris gallopavo, UniProt P49652)",
    "category": "Not met"
  },
  {
    "molecule": "Nc1ncnc2c1ncn2[C@@H]1O[C@H](COP(=O)(O)OP(=O)(O)OP(=O)(O)O)[C@@H](O)[C@H]1O [ADENOSINE TRIPHOSPHATE]",
    "target desc": "P2Y purinoceptor 1 (Meleagris gallopavo, UniProt P49652)",
    "category": "Not met"
  }
]
